test system: ragweed (common ragweed, Ambrosia elatior); assay: Test A preemergence; format: in vivo; conditions: Ambrosia artemisiifolia, pre-emergence, 240 h, 500 g ai/ha, preemergence; 0 to 100 scale where 0 is no effect and 100 is complete control; read-out: Ragweed plant response rating
Entries and their measured pest or weed control at 500 g/ha follow.
// units = %; emit number, no label

The examples below pair each entry with its known result.
Give pest or weed control at 500 g/ha for the following compound: N#Cc1cc([C@H]2CNC(=O)[C@]2(O)C(=O)Nc2ccccc2F)ccc1F 0

Quickly give me recorded pest or weed control at 500 g/ha for CSc1ccccc1NC(=O)[C@H]1C(=O)N(C)C[C@@H]1c1ccc(C(F)(F)F)nc1 100

For the compound O=C1NC[C@H](c2nccs2)[C@H]1C(=O)Nc1cccc(F)c1F , give its reported pest or weed control at 500 g/ha. 0

Indicate its recorded pest or weed control at 500 g/ha; the compound in question is CC(C)Oc1ccc([C@H]2CNC(=O)[C@@H]2C(=O)Nc2ccccc2F)cc1 0

State its pest or weed control at 500 g/ha: Cc1c(F)cccc1NC(=O)[C@H]1C(=O)NC[C@@H]1c1cccc2c1OC(F)(F)O2 0

Then this compound:
Return pest or weed control at 500 g/ha for the following compound: O=C1NC[C@H](c2cscn2)[C@H]1C(=O)Nc1cccc(F)c1F 0

###

tested on: ivy-leaved morning glory (Ipomoea hederacea); test: Test G Post-Emergence Protocol; assay type: in vivo; conditions: Ipomoea, post-emergence, 312 h, 62.5 g ai/ha, evaluated after 13 days, 100=total damage to plant, 0=no damage to plant, read-out: Morningglory, Ivy-leaved damage rating
experimental.endpoint: pest or weed control at 62.5 g/ha (%)
Write the value in % as a bare number.

Below: 2 compounds and their reported pest or weed control at 62.5 g/ha.
Read off the recorded pest or weed control at 62.5 g/ha for Cc1cc(C2CN(C)C(=O)C2C(=O)Nc2cccc(F)c2F)cc(C)c1Cl (centres unmarked) 20

Please supply the value of reported pest or weed control at 62.5 g/ha for the item CN1C[C@H](c2ccc(C(F)(F)F)cc2)[C@@H](C(=O)Nc2ccc3ncccc3n2)C1=O (racemic) 0

Further cases:
Let me know recorded pest or weed control at 62.5 g/ha for Cc1c(F)cccc1NC(=O)[C@@H]1C(=O)N(C)C[C@H]1c1cccc(OCC(F)(F)F)c1 (racemic) , thanks. 30

Item Cc1c(F)cccc1NC(=O)[C@@H]1C(=O)N(C)C[C@H]1c1cccc(C(C)(C)O)c1 (racemic) : provide pest or weed control at 62.5 g/ha 0

Annotate the compound Cc1c(F)cccc1NC(=O)[C@@H]1C(=O)N(C)C[C@H]1c1cc(Cl)c(F)c(Cl)c1 (racemic) with its measured pest or weed control at 62.5 g/ha. 30

###

pest or weed control at 250 g/ha listing for selected molecules.
test system: ivy-leaved morning glory (Ipomoea hederacea); experiment: Test G Post-Emergence Protocol; format: in vivo; details: Ipomoea, post-emergence, 312 h, 250 g ai/ha, evaluated after 13 days, read-out: damage to plant, Morningglory, Ivy-leaved (100=total damage to plant; 0=no damage to plant)
Field: numeric (%). Do not append units.

// known answers, use as guide
Recall and state the measured pest or weed control at 250 g/ha for CN1C[C@@H](c2ccc(C(F)(F)F)cc2)[C@H](C(=O)Nc2sccc2C#N)C1=O (racemic) . 40

Give pest or weed control at 250 g/ha for the following molecule: CN1C[C@@H](c2ccc(C(F)(F)F)cc2)[C@H](C(=O)Nc2cc(Cl)n[nH]2)C1=O (racemic) 0

Dear colleague, please send me the reported pest or weed control at 250 g/ha for Cc1cc([C@@H]2CN(C)C(=O)[C@H]2C(=O)Nc2cccc(F)c2F)cc(Cl)n1 (racemic) when you can. 80

Name the recorded pest or weed control at 250 g/ha of the molecule listed here: COc1nccc(NC(=O)[C@@H]2C(=O)N(C)C[C@H]2c2ccc(C(F)(F)F)cc2)n1 (racemic) 0

Supply pest or weed control at 250 g/ha value. Item: Cc1c(F)ccc(NC(=O)[C@@H]2C(=O)N(C)C[C@H]2c2ccc(C(F)(F)F)cc2)c1F (racemic) 30

***
Identify measured pest or weed control at 250 g/ha corresponding to CN1C[C@@H](c2ccc(C(F)(F)F)cc2)[C@H](C(=O)Nc2ccc(F)cc2C(F)(F)F)C1=O (racemic) 20

Note down pest or weed control at 250 g/ha recorded for COc1cccc(NC(=O)[C@@H]2C(=O)N(C)C[C@H]2c2ccc(C(F)(F)F)cc2)n1 (racemic) 30

Read off the recorded pest or weed control at 250 g/ha for Cc1cc([C@@H]2CN(C)C(=O)[C@H]2C(=O)Nc2cccc(F)c2F)cnc1Cl (racemic) 0

Identify pest or weed control at 250 g/ha associated with the molecule Cc1nc(C(F)(F)F)ccc1NC(=O)[C@@H]1C(=O)N(C)C[C@H]1c1ccc(C(F)(F)F)cc1 (racemic) 0

Please indicate pest or weed control at 250 g/ha recorded for CN1C[C@H](c2ccc(C(F)(F)F)cc2)[C@@H](C(=O)Nc2ccc(C(F)(F)F)c(F)c2F)C1=O (racemic) 0

Supply reported pest or weed control at 250 g/ha belonging to this molecule: Cc1c(NC(=O)[C@H]2C(=O)N(C)C[C@@H]2c2ccc(C(F)(F)F)cc2)cccc1[N+](=O)[O-] (racemic) 0

Entry CN1C[C@@H](c2ccc(C(F)(F)F)cc2)[C@H](C(=O)Nc2cccc(F)n2)C1=O needs its pest or weed control at 250 g/ha filled in; supply it. 0
